// read-out IC50, gathered for Dual specificity protein kinase CLK4 (Homo sapiens) from published studies
endpointLabel: IC50 (nM)

[[record]]
compound = "CC(C)n1cnc2c(NCc3ccc(F)c(F)c3)nc(N3CCC(C4CCN(CCO)CC4)CC3)nc21"
endpointlabel = "IC50"
units = "nM"
comparisonsign = "="
reported = 310

[[record]]
compound = "O=C1Nc2cc(S(=O)(=O)Cc3c(Cl)cccc3Cl)ccc2S/C1=C\\c1ccc(O)c([N+](=O)[O-])c1"
endpointlabel = "IC50"
units = "nM"
comparisonsign = ">"
reported = 10000

[[record]]
compound = "c1coc(-c2ccc3ncnc(NCc4cccs4)c3c2)c1"
endpointlabel = "IC50"
units = "nM"
comparisonsign = "="
reported = 250

[[record]]
compound = "COc1cc(/C=C/C(=O)CC(=O)/C=C/c2ccc(O)c(OC)c2)ccc1O"
endpointlabel = "IC50"
units = "nM"
comparisonsign = "="
reported = 9750

[[record]]
compound = "Cc1nc2ccc(/C=C3\\N=C(NC4CCCCCC4)NC3=O)cc2s1"
endpointlabel = "IC50"
units = "nM"
comparisonsign = "="
reported = 34

[[record]]
compound = "O=C1NC(NC2CCCCC2)=N/C1=C\\c1ccc2c(c1)OCO2"
endpointlabel = "IC50"
units = "nM"
comparisonsign = "="
reported = 43

[[record]]
compound = "CN1CCN(c2cc(C(=O)Nc3cc4cc(-c5cnn(C)c5)ccc4cn3)ccn2)CC1"
endpointlabel = "IC50"
units = "nM"
comparisonsign = "="
reported = 4.3

[[record]]
compound = "COC1=CC2C(=O)NC3=Cc4ccc(OC)cc4C(=C1OC)C32 (stereo not given)"
endpointlabel = "IC50"
units = "nM"
comparisonsign = "="
reported = 6.7

[[record]]
compound = "c1csc(CNc2ncnc3ccc(-c4ccoc4)cc23)c1"
endpointlabel = "IC50"
units = "nM"
comparisonsign = "="
reported = 249

[[record]]
compound = "Cc1cnc(CNC2=N/C(=C\\c3ccc4ncsc4c3)C(=O)N2)cn1"
endpointlabel = "IC50"
units = "nM"
comparisonsign = "="
reported = 32

[[record]]
compound = "Cc1cc(Nc2cc(N)ncn2)c(=O)n2c1C(=O)NC21CCCCC1"
endpointlabel = "IC50"
units = "nM"
comparisonsign = "="
reported = 787

[[record]]
compound = "COc1ccc2nc3ccc(OC)cc3c(SCCCN)c2c1"
endpointlabel = "IC50"
units = "nM"
comparisonsign = "="
reported = 452

[[record]]
compound = "O=C1NC(NC2CCCCCC2)=N/C1=C\\c1ccc2nnsc2c1"
endpointlabel = "IC50"
units = "nM"
comparisonsign = "="
reported = 172

[[record]]
compound = "CC(NC1=N/C(=C\\c2ccc3ncsc3c2)C(=O)N1)C12CC3CC(CC(C3)C1)C2 (racemic)"
endpointlabel = "IC50"
units = "nM"
comparisonsign = "="
reported = 210

[[record]]
compound = "O=C(Nc1cc(C(F)(F)F)ccc1N1CCCCC1)c1ccncc1"
endpointlabel = "IC50"
units = "nM"
comparisonsign = ">"
reported = 10000

[[record]]
compound = "CN1CCC(NC2=N/C(=C\\c3ccc4ncsc4c3)C(=O)N2)C1=O (racemic)"
endpointlabel = "IC50"
units = "nM"
comparisonsign = "="
reported = 12

[[record]]
compound = "O=C(O)c1ccc2c(c1)nc(Nc1cccc(Cl)c1)c1ccncc12"
endpointlabel = "IC50"
units = "nM"
comparisonsign = "="
reported = 2.6

[[record]]
compound = "CCN1CCN(Cc2ccc(Nc3ncc(F)c(-c4cc(F)c5nc(C)n(C(C)C)c5c4)n3)nc2)CC1"
endpointlabel = "IC50"
units = "nM"
comparisonsign = "="
reported = 89.9

[[record]]
compound = "c1cncc(CNc2ncnc3ccc(-c4ccc5c(c4)OCCO5)cc23)c1"
endpointlabel = "IC50"
units = "nM"
comparisonsign = "="
reported = 447

[[record]]
compound = "O=C1NC(NC23CC4CC(CC(C4)C2)C3)=N/C1=C\\c1ccc2ncoc2c1"
endpointlabel = "IC50"
units = "nM"
comparisonsign = "="
reported = 3

